FYI, the data here is from PubChem BioAssay (NCI).

# System: K-562 leukemia
# assay: NCI tumour cell line growth inhibition, 48 h
quantity.measured: GI50

- COc1ccc(OC)c(NCC(=O)n2nc(/C=C\c3ccc(O)c(OC)c3)cc2/C=C\c2ccc(O)c(OC)c2)c1: 729 nM
- Nc1nc2c(c3cnccc13)C(c1ccc(Cl)c(Cl)c1)Cc1cnccc1-2 (stereo not drawn): 452 nM
- O=C1C=C[C@H](O)[C@@]2(CO)O[C@@H]12: 3350 nM

* * *

The following compounds are shown together with reported TGI values.
# System: TK-10 renal
# assay: NCI tumour cell line growth inhibition, 48 h
quantity.measured: TGI

• COc1cc2ccc3c4cc(OC)c(OC)cc4c[n+](C)c3c2cc1O = > 100 µM
• COC(=O)C1C(C(=O)OC)C2C(=O)C3C(C(=O)OC)C(C(=O)OC)C3C(=O)C12 (configuration not stated) = > 100 µM
• Cc1ccc(S(=O)(=O)OCC/C(=C\[Si](C)(C)C)c2ccccc2)cc1 = > 100 µM
• O=C(CC(NC(=O)C(F)(F)F)C(=O)O)OCc1ccccc1 (configuration not stated) = > 100 µM
• N#C/C(=C\c1cc(OCc2ccccc2)c(OCc2ccccc2)cn1)C(N)=O = > 100 µM
• C[C@]12Cc3cn[nH]c3C(=O)C1CC[C@@H]1C2CC[C@@]2(C)C1CC[C@@H]2O (some centres not stated) = > 100 µM
• Cn1c2ccccc2c2ccc3c(c21)C(=O)c1ccc2c4ccccc4n(C)c2c1C3=O = > 100 µM
• Cc1nnc2n(c1=O)CCCN2C = > 100 µM
• Clc1cccc(-c2sc(-c3cccs3)cc2Cc2cccs2)c1 = > 10 µM
• COC(=O)c1ccccc1C1CN=NC12Cc1c(ccc(C)c1C)C2=O (configuration not stated) = > 100 µM
• N#CNC(N)=NCc1ccccc1 = > 100 µM
• NCCN1CCCCCc2ccccc21 = > 10 µM

* * *

The following molecules are shown together with reported TGI values.
# System: HL-60(TB) leukemia
# assay: NCI tumour cell line growth inhibition, 48 h
quantity.measured: TGI

* COc1ccc(OC)c(/C=C/c2nc(=S)n(-c3ccc(Cl)cc3)[nH]2)c1 | > 100 µM
* O=c1c(F)cn2c(=O)n1CCCCCCCn1c(=O)c(F)cn(c1=O)CCCCCCC2 | > 100 µM
* C[C@]12Cc3cn[nH]c3C(=O)C1CC[C@@H]1C2CC[C@@]2(C)C1CC[C@@H]2O (stereo partly drawn) | > 100 µM

* * *

# Tested on: MDA-MB-435
# assay: NCI tumour cell line growth inhibition, 48 h
quantity.measured: TGI

* COC(=O)C(Cc1cn(C(C)n2cc(CC(NC(C)=O)C(=O)OC)c3ccccc32)c2ccccc12)NC(C)=O (stereo not drawn) | > 100 µM
* O=C(NCCNCCO)c1ccc2c(c1)oc1cc3ccccc3c(=O)n12 | > 50 µM
* O=C(CC(NC(=O)C(F)(F)F)C(=O)O)OCc1ccccc1 (stereo not drawn) | > 100 µM

* * *

# Tested on: M14 melanoma
# assay: NCI tumour cell line growth inhibition, 48 h
quantity.measured: TGI

* CCOC(=O)c1c(N2CCCC2)[nH]c(=O)c(C(c2ccc(OC)cc2)c2c(O)c(C(=O)OCC)c(N3CCCC3)[nH]c2=O)c1O | > 100 µM
* O=C1NC2=C(CCCCC/C2=N\O)C12CCCCCC2 | > 100 µM
* Cn1c([N+](=O)[O-])cnc1C=C1C(=O)c2ccccc2C1=O | 16.6 µM
* COC(=O)c1ccccc1C1CN=NC12Cc1c(ccc(C)c1C)C2=O (stereo not given) | > 100 µM
* S=C(Cc1ccc2c(c1)Sc1ccccc1O2)N1CCOCC1 | > 100 µM
